# testTarget: Cathepsin S (Homo sapiens)
# methodDescription: Cathepsin S inhibition, fluorogenic peptide substrate kinetic assay
# Format: biochemical
# testConditions: Table II; Cathepsin S inhibition constant, pH5.5; read-out: Ki Cat. S
pKi: −log10 of the molar value.
propertyName: pKi

A selection of reference data follows.
compound	testTarget	pKi
C[C@@H](CNc1ccc(OC(F)(F)F)cc1)NC(=O)[C@H](CC1CCCC1)NC(=O)OC1CCOCC1	Cathepsin S (Homo sapiens)	> 7.00
C[C@@H](CN1CC(C)(C)c2cc(F)ccc21)NC(=O)[C@H](CC(C)(C)C)NC(=O)C1CCOCC1	Cathepsin S (Homo sapiens)	> 6.00
C[C@@H](CNc1ccccc1F)NC(=O)[C@H](CC1CCCCC1)NC(=O)c1ccc(-c2cccc(F)c2)o1	Cathepsin S (Homo sapiens)	> 7.00

In: Value wanted: pKi (Cathepsin S (Homo sapiens)) of entry "C[C@@H](CNc1ccc(OC(F)(F)F)cc1)NC(=O)[C@H](CC1CCCCC1)NC(=O)[C@H]1CCCO1"
Out: > 7.00

In: Now this one: "O=C(NCCN1CCc2cc(F)ccc21)[C@H](CC1CCCCC1)NS(=O)(=O)c1ccc(C(F)(F)F)cc1"
Out: > 6.00

In: Now this one: "Cc1cccc(C(=O)N[C@@H](CC(C)C)C(=O)N[C@@H](CCC(=O)O)CN2CCc3cc(F)ccc32)c1"
Out: > 7.00

In: Now this one: "C[C@@H](CNc1ccccc1Cl)NC(=O)[C@H](CC1CCCCC1)NC(=O)c1ccc(-c2cccc(F)c2)o1"
Out: > 7.00

In: Now this one: "Cc1nn(C)c(Cl)c1S(=O)(=O)N[C@@H](CC1CCCCC1)C(=O)NCCN1CCc2cc(F)ccc21"
Out: > 6.00

In: Now this one: "C[C@@H](CNc1ccc(O)cc1)NC(=O)[C@H](CC1CCCCC1)NC(=O)c1ccc(-c2cccc(F)c2)o1"
Out: > 7.00

In: Now this one: "C[C@@H](CN1CCc2cc(F)ccc21)NC(=O)[C@H](CC(C)(C)C)NC(=O)C1CC1"
Out: > 7.00

In: Now this one: "O=C(Nc1ccc(-c2ccccc2)cc1)N[C@@H](CC1CCCCC1)C(=O)NCCN1CCc2cc(F)ccc21"
Out: > 6.00

* * *

# testTarget: Cathepsin S (Homo sapiens, UniProt P25774)
# Sequence (P25774 115-331, species assumed): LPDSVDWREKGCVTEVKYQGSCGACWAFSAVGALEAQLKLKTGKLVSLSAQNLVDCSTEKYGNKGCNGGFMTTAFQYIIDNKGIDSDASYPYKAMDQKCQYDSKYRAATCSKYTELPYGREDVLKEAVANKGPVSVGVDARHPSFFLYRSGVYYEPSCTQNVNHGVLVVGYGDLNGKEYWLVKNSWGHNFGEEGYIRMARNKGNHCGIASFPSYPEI
# methodDescription: Cathepsin S inhibition, fluorogenic peptide substrate kinetic assay
# Type: biochemical
# testConditions: Table II; Cathepsin S inhibition constant, pH5.5; read-out: Ki Cat. S
pKi: −log10 of the molar value.
propertyName: pKi

A selection of reference data follows.
compound	measuredValue
Cn1cnc(S(=O)(=O)N[C@@H](CC2CCCCC2)C(=O)NCCN2CCc3cc(F)ccc32)c1	> 6.00
C[C@@H](CNc1cccc(Cl)c1F)NC(=O)[C@H](CC1CCCCC1)NC(=O)c1ccc(-c2cccc(F)c2)o1	> 6.00
COc1ccc(NC[C@H](C)NC(=O)[C@H](CC2CCCCC2)NC(=O)c2ccc(-c3cccc(F)c3)o2)cc1	> 7.00

In: Item "O=C(N[C@@H](CC1CCCC1)C(=O)NCCN1CCc2cc(F)ccc21)c1ccc(-c2cccc(C(F)(F)F)c2)o1" has what recorded pKi?
Out: > 7.00

Hello, the source for this data is patent US20040248887A1, in case you need it.
